# Tested on: SF-268 CNS
# experiment_notes: NCI tumour cell line growth inhibition, 48 h
Entries and their GI50 values follow.

// below: answered compounds
C/C(=N\NC(=S)N1CCN(c2ccccn2)CC1)c1ncccn1
0.791 µM
Nc1nc2ccccc2c2c1S(=O)(=O)c1ccc(Cl)cc1C2=O
1.83 µM
COc1ccc(-c2c3c(N)c4c(nc3nc3c2c(C)nn3-c2ccccc2)CCCC4)cc1
5.33 µM

What the record says about CC1CCC2C(CN(CC3=C(C(F)(F)F)OC4OC5(C)CCC6C(C)CCC3C46OO5)CC3=C(C(F)(F)F)OC4OC5(C)CCC6C(C)CCC3C46OO5)=C(C(F)(F)F)OC3OC4(C)CCC1C32OO4 (stereo not given) : GI50 is 18.7 µM

GI50 recorded for this compound, COC1=C(OC)C(=O)C(CCCCCCCCCCO)=C(C)C1=O , is 9.61 µM

###

# Test system: SN12C renal
# experiment_notes: NCI tumour cell line growth inhibition, 48 h; in the data active means GI50 below about 0.43 µM; inactive means the rest
Pick from active, inactive when you respond.

Exercise: Short answer needed: outcome of this test for Clc1nc(Cl)c2ncn(CCOCCn3cnc4c(Cl)nc(Cl)nc43)c2n1 ?
Solution: active

Exercise: Per the records of this test, what outcome belongs to C=C1C(=O)O[C@H]2[C@H]1CC/C(COC(=O)NCc1c[nH]c3ccc(F)cc13)=C\CC[C@@]1(C)O[C@@H]21 ?
Solution: inactive

Exercise: Given O=C1c2ccccc2C(=O)c2c1cc1c(c2[N+](=O)[O-])OCO1 , state the outcome it received in this test.
Solution: inactive

###

# Test system: SF-268 CNS
# experiment_notes: NCI tumour cell line growth inhibition, 48 h
readout_type: TGI

Worked set:
O=c1ccn(/C=C/C(O)C(O)CO)c(=O)[nH]1 (stereo not given)
> 100 µM
BrCc1ccc(CBr)c2c1-c1c(CBr)ccc3ccc(CBr)c-2c13
> 100 µM

Item: Cc1ccc(/C=C2\Cc3cc(C)c(C)cc3C2=O)c(C(=O)O)c1 | TGI: > 100 µM

Record Cc1ccc(/N=N/C(=NNC(=O)c2ccc(C)cc2)c2ccc(N(C)C)cc2)cc1 . Reported TGI: > 100 µM

Looking up CC(=O)CC(=O)CCC(=O)Nc1cccc(C(F)(F)F)c1 , I see its TGI listed as > 100 µM

Per the record, COc1ccc(OC)c(Cc2cnc3nc(N)nc(N)c3c2C)c1 has TGI of > 71.2 µM

GET /value?item= COCCOCCOCCOCCOC(=O)OC[n+]1ccc(NC(=NCCCCCCOc2ccc(Cl)cc2)NC#N)cc1 &field=TGI returns 26.9 µM

TGI reading for O=S(=O)(O)c1ccc2cc(N=Nc3c(O)ccc4ccccc34)ccc2c1 : > 100 µM

The measured TGI associated with CC(C)=CCC/C(C)=C/CCC1(C)C=Cc2c(c3ccccc3oc2=O)O1 (stereo not given) reads 40.8 µM

Value of measured TGI for the entry COc1ccc(-c2c3c(N)c4c(nc3nc3c2c(C)nn3-c2ccccc2)CCCC4)cc1 : 19.4 µM

###

# System: OVCAR-8 ovarian
# experiment_notes: NCI tumour cell line growth inhibition, 48 h
readout_type: log10(TGI) (log10 of the value in µM)
Please note: log10 values; quantity TGI; unit µM.

COC(=O)c1ccc(C=C(C#N)C#N)cc1
1.75
COc1ccc(/C=N\Nc2nc(SCC(C)C)nc(-c3ccc(OC)cc3)c2C#N)cc1
1.47
CC1SC(c2ccc(Cl)cc2)N(CCc2cccs2)C1=O (stereo not given)
0.61
COCCOCCOCCOCCOC(=O)OC[n+]1ccc(NC(=NCCCCCCOc2ccc(Cl)cc2)NC#N)cc1
1.32

Note: attention shifts to another entry.
The molecule listed as COc1ccc2c(c1)C(=O)c1c-2c(=O)n(CCCN(C)C)c2cc(OC)c(OC)cc12 has a reported log10(TGI) of 1.36

###

# Tested on: HCC-2998 colon
# experiment_notes: NCI tumour cell line growth inhibition, 48 h
GI50 by entry:

Use the examples below as a reference point.
C[C@H]1CN(C2COC2)CCN1c1ccc(Nc2cc(-c3ccnc(N4CCn5c(cc6c5CC(C)(C)C6)C4=O)c3CO)cn(C)c2=O)nc1
49.9 µM
N#C/C(=C\c1cc2ccc(N3CCC3)cc2oc1=O)C(=O)N(CC(=O)O)CC(=O)O
> 100 µM
O=S(=O)(O)c1ccc2cc3nn(-c4ccc(/C=C/c5ccc(-n6nc7cc8ccc(S(=O)(=O)O)cc8cc7n6)cc5S(=O)(=O)O)c(S(=O)(=O)O)c4)nc3cc2c1
73.8 µM

Next item in the queue.
Reported GI50 for O=C(O)CCCc1ccccc1 was > 1000 µM

###

In this section, each of the compounds is paired with its reported TGI.
# Test system: SK-MEL-28 melanoma
# experiment_notes: NCI tumour cell line growth inhibition, 48 h

Worked set:
COc1cc2c(cc1NC(=O)C(Cl)Cl)-c1ccc(NC(=O)C(Cl)Cl)cc1C2
1.76 µM
Cn1c(C(=O)c2cccc3ccccc23)nc2ccccc21
> 100 µM
CN1CCCC1c1cccnc1.O=C(O)c1ccccc1O.O=C([O-])c1ccccc1[OH2+].O=C([O-])c1ccccc1[OH2+].[Mn+2] (stereo not given)
> 100 µM
O=c1[nH]c(=S)[nH]c(-c2ccccc2)c1Cc1c(O)ccc2ccccc12
> 100 µM

TGI reported for this compound Nc1[nH]c(=O)[nH]c(=O)c1Cc1cccc(Cl)c1 : > 100 µM

###

Each entry below carries its reported TGI.
# Test system: NCI-H460 lung
# experiment_notes: NCI tumour cell line growth inhibition, 48 h

Previously resolved entries follow.
C[C@@H](NC(=O)c1ccc(F)cc1)c1ccc2c(c1)CCN2C(=O)C1CCOCC1
> 100 µM
CC1CCC2(C)C(CC=C(C=O)C2(O)C=O)C12CO2 (stereo not drawn)
7.7 µM
CN(CCNC(=S)c1cn(C)c2c1ccc1ccccc12)CCNC(=S)c1cn(C)c2c1ccc1ccccc12
> 100 µM
O=[N+]([O-])/C=C/c1ccc(Cl)cc1Cl
37.4 µM
c1ccc2c(CNCCN3CCNCC3)c3ccccc3c(CNCCN3CCNCC3)c2c1
98.3 µM

For reference, reported TGI for COc1cccc(C(NC2=NCCC=N2)c2cc3c(cc2O)OCO3)c1O (stereo not drawn) stands at > 100 µM

The value of TGI measured for the compound Nc1[nH]c(=O)[nH]c(=O)c1Cc1cccc(Cl)c1 turned out to be > 100 µM

Entry Cc1ccc(S(=O)(=O)NC(=O)OC23COCN2COC3)cc1 , TGI reported as > 100 µM

What the record says about Nc1nc(C(=O)O)c(N=Nc2ccccc2)c(=O)[nH]1 : TGI is > 100 µM

The compound listed as COc1ccc(S(=O)(=O)N2CCNCC2)cc1OC has a reported TGI of > 100 µM

response.value for O=[N+]([O-])C(=C/c1cccc2ccccc12)/C(=C\c1cccc2ccccc12)[N+](=O)[O-] (field: TGI) = 7.92 µM

So, Nc1n[nH]c(CCCCCCCc2nc(N)n[nH]2)n1 ? Its TGI was > 100 µM

TGI reported for this compound O=C(c1cc(Cc2n[nH]c(=O)c3ccccc23)ccc1F)N1CCN(C(=O)C2CC2)CC1 : > 100 µM

###

# Tested on: MCF7 breast
# experiment_notes: NCI tumour cell line growth inhibition, 48 h; in the data active = GI50 below about 0.43 µM; inactive = the rest
// one of TRUE for active, FALSE for inactive, no free text

Example entries and their recorded answers appear below.
Cc1ccc(Cl)cc1-n1c(C)nc2c(cnn2-c2ccnc3c(C(F)(F)F)cccc23)c1=O
FALSE
CC1(C)[C@H](O)[C@H](F)C[C@@]2(C)Oc3ccc(C(=O)Nc4ccc5c(c4)NC(=O)C54CCN(CCCCC#N)CC4)cc3C[C@H]12
TRUE
CN1CCCC1c1cccnc1.O=C(O)c1ccccc1O.O=C([O-])c1ccccc1[OH2+].O=C([O-])c1ccccc1[OH2+].[Mn+2] (stereo not given)
FALSE
Cn1c(C(=O)c2cccc3ccccc23)nc2ccccc21
FALSE
Cc1ccc(-n2c(-c3cc4c([nH]c5ccccc54)c(-c4cccc(O)c4)n3)n[nH]c2=S)cc1
FALSE
CCn1ccnc1C(=O)/C=C/c1ccc(CC(=O)Nc2ccc(F)cc2)cc1
FALSE
CC(C)(C)c1cc(C(=O)O)c2c(c1)C(=O)OC2(c1ccccc1)c1ccccc1C(=O)O (stereo not given)
FALSE
c1ccc(C2CCCCC2)c(OCCCCCN2CCNCC2)c1
FALSE

Exercise: # outcome recorded in this test, key = [Cl][Cu][Cl]
Solution: FALSE

Exercise: Record lookup: outcome of this test for COc1ccc(-c2[nH]c3ccccc3c2/C=C(\C#N)S(=O)(=O)c2ccccc2)cc1 ?
Solution: TRUE

###

# Tested on: SF-295 CNS
# experiment_notes: NCI tumour cell line growth inhibition, 48 h; in the data active = GI50 below about 0.43 µM; inactive = the rest
Mark one answer only. Choices: label 1 for active, label 0 for inactive

Observe how each entry below is paired with its result.
Cc1ccc(Cl)cc1-n1c(C)nc2c(cnn2-c2ccnc3c(C(F)(F)F)cccc23)c1=O
label 0
COc1ccc2c(c1)C(=O)c1c-2c(=O)n(CCCN(C)C)c2cc(OC)c(OC)cc12
label 1
O=C1C(Nc2cccc(O)c2)=C(Sc2ccccc2)C(=O)N1Cc1ccccc1
label 0
O=C(c1ccco1)c1c(C(F)(F)F)n([O-])c2cc(F)c(F)cc2[n+]1=O
label 0

Exercise: Test call, this molecule: COc1ccc(/C=N\Nc2nc(SCC(C)C)nc(-c3ccc(OC)cc3)c2C#N)cc1
Solution: label 0

Exercise: Just curious, what result did CC1(C)[C@H](O)[C@H](F)C[C@@]2(C)Oc3ccc(C(=O)Nc4ccc5c(c4)NC(=O)C54CCN(CCCCC#N)CC4)cc3C[C@H]12 get here?
Solution: label 1

Exercise: Please share the test call associated with O=C1/C(=C/c2ccccc2O)N=C(c2ccccc2)N1c1cc(C(F)(F)F)ccc1Cl .
Solution: label 0

Exercise: What was the test verdict on C=CCN(CC=C)C(=O)[C@H](CC)[C@@H]1CC[C@@H](C)[C@@H]([C@H](C)[C@@H](O)[C@@H](C)C(=O)[C@H](CC)C2O[C@]3(C=C[C@@H](O)[C@]4(CC[C@@](C)([C@H]5CC[C@](O)(CC)[C@H](C)O5)O4)O3)[C@H](C)C[C@@H]2C)O1 (stereo partly specified) ?
Solution: label 0

Exercise: Please share the test call associated with N#Cc1c(NC(=O)c2ccccc2F)sc2c1CCCC2 .
Solution: label 0

Exercise: Query: recorded result category for C[C@H]1CN(C2COC2)CCN1c1ccc(Nc2cc(-c3ccnc(N4CCn5c(cc6c5CC(C)(C)C6)C4=O)c3CO)cn(C)c2=O)nc1 in this test
Solution: label 0

Exercise: Answer briefly: the call reported for O=c1[nH]c2ccccc2n1C1CCN(CCCC(c2ccc(F)cc2)c2ccc(F)cc2)CC1 in this assay.
Solution: label 0

Exercise: Hello, I am checking results. What call was entered for CCn1ccnc1C(=O)/C=C/c1ccc(CC(=O)Nc2ccc(F)cc2)cc1 ?
Solution: label 0

Exercise: // return assay outcome for COc1cc(/C=C/C(=O)O[C@H]2[C@H](O[C@@H]3O[C@@H](C)[C@H](O)[C@@H](O)[C@H]3O)[C@@H](O)[C@H](OCCc3ccc(O)c(O)c3)O[C@@H]2COC2OCC(O)(CO)C2O)ccc1O (stereo partly specified)
Solution: label 0

Exercise: # outcome recorded in this test, key = COc1cc(C(=O)/C=C/c2c(C(F)(F)F)nc3ccccn23)cc(OC)c1OC
Solution: label 0

Exercise: Please state the recorded outcome for this molecule: COC1=C(OC)[C@]2(OC)c3c(O)c(OC)c4c(c3O[C@@]23O[C@@H](c2ccccc2)CC=C3C1=O)[C@@H](OC)C[C@H](c1ccccc1)O4
Solution: label 0

Exercise: Kindly provide the recorded test outcome for the following molecule: CC(=O)[CH-]C(C)=O.CC(=O)[CH-]C(C)=O.CC(=O)[CH-]C(C)=O.[Ga+3]
Solution: label 0
